Source of measurements: ChEMBL document CHEMBL1126362

Provide the reported Ki of each item.
Target: Seed linoleate 13S-lipoxygenase-1 (Glycine max)
Sequence (P08170 whole entry): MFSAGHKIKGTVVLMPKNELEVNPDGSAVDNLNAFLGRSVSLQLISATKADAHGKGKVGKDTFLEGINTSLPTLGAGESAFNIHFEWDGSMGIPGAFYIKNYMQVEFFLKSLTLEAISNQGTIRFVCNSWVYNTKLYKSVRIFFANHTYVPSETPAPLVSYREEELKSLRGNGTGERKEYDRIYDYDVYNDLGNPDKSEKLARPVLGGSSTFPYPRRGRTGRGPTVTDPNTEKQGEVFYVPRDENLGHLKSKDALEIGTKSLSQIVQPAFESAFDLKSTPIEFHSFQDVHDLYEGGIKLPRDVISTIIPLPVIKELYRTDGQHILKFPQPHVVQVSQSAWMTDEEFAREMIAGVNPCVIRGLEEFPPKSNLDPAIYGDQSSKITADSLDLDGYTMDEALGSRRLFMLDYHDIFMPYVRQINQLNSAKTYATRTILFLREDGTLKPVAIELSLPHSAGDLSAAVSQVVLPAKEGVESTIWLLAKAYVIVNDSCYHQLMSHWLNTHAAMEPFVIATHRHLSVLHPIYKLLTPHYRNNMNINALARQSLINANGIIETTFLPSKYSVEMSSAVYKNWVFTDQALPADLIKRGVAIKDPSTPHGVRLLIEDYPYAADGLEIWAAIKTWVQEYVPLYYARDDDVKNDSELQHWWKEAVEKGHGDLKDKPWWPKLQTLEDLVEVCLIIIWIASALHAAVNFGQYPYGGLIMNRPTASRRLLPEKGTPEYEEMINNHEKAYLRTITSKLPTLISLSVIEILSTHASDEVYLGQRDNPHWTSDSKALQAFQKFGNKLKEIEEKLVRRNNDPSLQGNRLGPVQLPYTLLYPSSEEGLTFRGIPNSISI

Lab note: need Ki with Seed linoleate 13S-lipoxygenase-1 (Glycine max) for entry CCCCC/C=C/CC1OC1CCCCCCCC(=O)O (configuration not stated) , please look it up.
> 100 µM

Now the molecule CCCCCCCCC1OC1CCCCCCCC(=O)O (configuration not stated)
> 100 µM

Now the molecule CCCCCC1OC1CCCCCCCCCCC(=O)O (configuration not stated)
> 100 µM

Now the molecule CCCCCC1SC1CCCCCCCCCCC(=O)O (configuration not stated)
4 µM

Now the molecule CCCCCCCCC1SC1CCCCCCCC(=O)O (configuration not stated)
> 100 µM

Now the molecule CCCCCC1SC1C/C=C/CCCCCCCC(=O)O (configuration not stated)
2 µM

Now the molecule CCCCC/C=C/CC1SC1CCCCCCCC(=O)O (configuration not stated)
> 100 µM
